From: patent US20240101570A1

Tested on: HCT116 WT cells
Assay: HCT116 WT cell proliferation / viability (CellTiter-Glo, 6 days)
Type: cell-based
Settings: Homo sapiens, HCT-116, 144 h, HCT116 WT cells, 6 days, CellTiter-Glo; read-out: HCT-116 WT IC50
result_type: IC50 (nM)

Use the examples below as a reference point.
INSERT INTO measurements (molecule, tested_target, reading) VALUES
  ('CCOc1ccc(CN(C(=O)c2cc3c4c(c(N)nc3cn2)COC4)[C@H](C)COC)nn1', 'HCT116 WT cells', 1280),
  ('Nc1nc2cnc(C(=O)N(Cc3ccc(C(F)(F)F)cn3)CC(F)(F)F)cc2c2c1COC2', 'HCT116 WT cells', 17500),
  ('CO[C@@H]1CCOC[C@H]1N(Cc1ccc(C(F)(F)F)cn1)C(=O)c1ccc2nc(N)c3c(c2c1)COC3 (single isomer, unassigned) [Example 586]', 'HCT116 WT cells', 150);

[A] CCN(C(=O)c1ccc2nc(N)c3c(c2c1)COC3)[C@@H](c1ccc(C(F)(F)F)nn1)C1CC1
[B] Nc1nc2cc(Cl)c(C(=O)N(Cc3ccc(C(F)(F)F)cn3)C34CC(C3)C4)cc2c2c1COC2
So which one has the bigger IC50 here, A or B ? Record your answer as the label of the chosen record.
A

###

Test system: HCT116 WT cells
Assay: HCT116 WT cell proliferation / viability (CellTiter-Glo, 6 days)
Assay type: cell-based
Conditions: Homo sapiens, HCT-116, 144 h, HCT116 WT cells, 6 days, CellTiter-Glo; read-out: HCT-116 WT IC50
pIC50: −log10 of the molar value.
result_type: pIC50

Use the examples below as a reference point.
INSERT INTO measurements (compound, result_type, reading) VALUES
  ('CN(Cc1ccc(Cl)cn1)C(=O)c1ccc2nc(N)c3c(c2c1)COC3 [Example 702]', 'pIC50', 5.39),
  ('CCN(C(=O)c1ccc2nc(N)c3c(c2c1)COC3)C(C)c1ccc(Cl)nc1 (racemic) [Example 727]', 'pIC50', 4.91),
  ('CCN(Cc1ccc(OC(F)F)nn1)C(=O)c1cc2c3c(c(N)nc2cc1F)COC3 [Example 724]', 'pIC50', 5.61);

[I] C[C@H]1OCc2c1c(N)nc1cc(F)c(C(=O)N(Cc3ccc(OCC(F)(F)F)nn3)CC3CC3)cc21 [Example 818]
[II] N#Cc1ccc(CN(CC2CC2)C(=O)c2ccc3nc(N)c4c(c3c2)COC4)nc1 [Example 325]
[III] C[C@H]1OCc2c1c(N)nc1cnc(C(=O)N(Cc3ccc(C(F)(F)F)cn3)CC(F)(F)F)cc21 [Example 320]
[IV] C[C@@H](c1ccc(C(F)(F)F)cn1)N(C(=O)c1ccc2nc(N)c3c(c2c1)COC3)C1CC1 [Example 735]
// sort entries: pIC50, high to low To answer, write out the labels according to the requested order.
I, II, III, IV

###

Tested on: HCT116 WT cells
Assay: HCT116 WT cell proliferation / viability (CellTiter-Glo, 6 days)
Type: cell-based
Details: Homo sapiens, HCT-116, 144 h, HCT116 WT cells, 6 days, CellTiter-Glo; read-out: HCT-116 WT IC50
pIC50: −log10 of the molar value.
result_type: pIC50

Use the examples below as a reference point.
INSERT INTO measurements (compound, reading) VALUES
  ('CC(C)N(Cc1ccc(C(F)(F)F)cn1)C(=O)c1cc2c3c(c(N)nc2cc1Cl)COC3', 6.40),
  ('CN(CC(F)(F)c1ccc(Cl)cn1)C(=O)c1ccc2nc(N)c3cnn(C)c3c2c1', 5.16);

[1] CC(C)N(C(=O)c1cc2c3c(c(N)nc2cn1)COC3)[C@@H](C)c1ccc(C(F)(F)F)cn1 (single isomer, unassigned)
[2] CC1OCc2c1c(N)nc1ccc(C(=O)N(Cc3ccc(C#N)cn3)CC3(C#N)CC3)cc21 (stereo not shown)
So which one has the bigger pIC50 here, 1 or 2 ? Record your answer as the label of the chosen record.
2

###

Tested on: HCT116 WT cells
Assay: HCT116 WT cell proliferation / viability (CellTiter-Glo, 6 days)
Format: cell-based
Settings: Homo sapiens, HCT-116, 144 h, HCT116 WT cells, 6 days, CellTiter-Glo; read-out: HCT-116 WT IC50
pIC50: −log10 of the molar value.
result_type: pIC50

Use the examples below as a reference point.
INSERT INTO measurements (compound, tested_target, reading) VALUES
  ('Nc1nc2ccc(C(=O)N(Cc3ccc(C4CC4)cn3)C3CC3)cc2c2c1COC2 [Example 343]', 'HCT116 WT cells', 5.08),
  ('CC(C)N(Cc1ccc(C#N)cn1)C(=O)c1cc2c3c(c(N)nc2cc1F)COC3 [Example 477]', 'HCT116 WT cells', 4.71);

[1] CC1OCc2c1c(N)nc1ccc(C(=O)N(Cc3ccc(C(F)(F)F)cn3)CC3(C#N)CC3)cc21 (centres unmarked) [Example 917]
[2] C[C@H]1OCc2c1c(N)nc1ccc(C(=O)N(Cc3ccc(C(F)(F)F)nn3)C3CCC3)cc21 [Example 722]
[3] C[C@H](c1ncccn1)N(Cc1ccc(C(F)(F)F)nn1)C(=O)c1ccc2nc(N)c3c(c2c1)COC3 [Example 441]
// sort entries: pIC50, high to low To answer, write out the labels according to the requested order.
3, 1, 2

[1] CCN(C(=O)c1ccc2nc(N)c3c(c2c1)COC3)[C@H](C)c1ccc(C(F)(F)F)cc1 [Example 743]
[2] C[C@H](c1ncccn1)N(Cc1ccc(C(F)(F)F)cn1)C(=O)c1ccc2nc(N)c3ncncc3c2c1 [Example 638]
[3] C[C@H](c1ncccn1)N(Cc1ccc(C(F)(F)F)cn1)C(=O)c1ccc2nc(N)c3c(c2c1)CCCC3 [Example 654]
Write the entries in order, lowest recorded pIC50 first. To answer, write out the labels according to the requested order.
1, 2, 3

###

Tested on: HCT116 WT cells
Assay: HCT116 WT cell proliferation / viability (CellTiter-Glo, 6 days)
Format: cell-based
Settings: Homo sapiens, HCT-116, 144 h, HCT116 WT cells, 6 days, CellTiter-Glo; read-out: HCT-116 WT IC50
result_type: IC50 (µM)

[A] N#Cc1ccc(CN(C(=O)c2ccc3nc(N)c4c(c3c2)COC4)C2CCCn3ncnc32)nc1 (racemic) [Example 448]
[B] CC(c1ncc(C(F)(F)F)cc1C#N)N(C)C(=O)c1cc2c(cc1F)nc(N)c1cnn(C)c12 (stereo not drawn) [Example 936]
Hello, I am sorting some records. Could you say if A or B has the smaller IC50 value? Record your answer as the label of the chosen record.
A

[1] CCN(Cc1ccc(C(F)(F)F)cn1)C(=O)c1cc2c3c(c(N)nc2cc1F)[C@H](C)OC3 [Example 557]
[2] N#Cc1ccc(CN(C(=O)c2cc3c4c(c(N)nc3cn2)COC4)C2CC2)nc1 [Example 347]
[3] N#Cc1ccc(CN(C(=O)c2ccc3nc(N)c4c(c3c2)COC4)C2CC2)nc1 [Example 454]
Write the entries in order, lowest recorded IC50 first. To answer, write out the labels according to the requested order.
1, 3, 2

###

Test system: HCT116 WT cells
Assay: HCT116 WT cell proliferation / viability (CellTiter-Glo, 6 days)
Type: cell-based
Conditions: Homo sapiens, HCT-116, 144 h, HCT116 WT cells, 6 days, CellTiter-Glo; read-out: HCT-116 WT IC50
result_type: IC50 (µM)

Use the examples below as a reference point.
INSERT INTO results (compound, result_type, reading) VALUES
  ('CCN(Cc1ccc(C(F)(F)F)cn1)C(=O)c1cc2c(cc1F)nc(N)c1cnn(C)c12 [Example 554]', 'IC50', 0.181),
  ('CCOc1ccc(CN(C(=O)c2cc3c4c(c(N)nc3cn2)[C@@H](C)OC4)C23CC(C2)C3)nn1 [Example 409]', 'IC50', 5.87),
  ('C[C@H]1OCc2c1c(N)nc1ccc(C(=O)N(C)Cc3ccc(C#N)cn3)cc21 [Example 386]', 'IC50', 30.3),
  ('C[C@H]1OCc2c1c(N)nc1ccc(C(=O)N(Cc3ccc(C(F)(F)F)cn3)CC3CC3)cc21 [Example 334]', 'IC50', 0.509);

[a] COc1ccc(CN(C(=O)c2ccc3nc(N)c4c(c3c2)COC4)[C@H](C)c2ncccn2)nn1 [Example 446]
[b] CN(Cc1ccc(C2CC2)cn1)C(=O)c1cc2c3c(c(N)nc2cc1F)COC3 [Example 372]
[c] CN(Cc1ccc(C(F)(F)F)cn1)C(=O)c1ccc2nc(N)c3c(c2c1)COC3 [Example 450]
// sort entries: IC50, high to low To answer, write out the labels according to the requested order.
c, b, a
